Let's look at some molecules and their measured IC50.
Test: Cytotoxicity by MTT assay against T47D cells
Details: human, Cytotoxicity against T47D cells IC50 (nM) Normoxic, T47D cells, normoxic conditions, MTT assay
recorded metric: IC50

> print(dat)
                                   molecule  experimental.value
1  COc1cc2c(cc1O)c1c(c3cc(OC)c(OC)cc32)CN2CCC[C@@H]2[C@@H]1O [compound 9, 13aR-2-hydroxyl tylophorinine]           > 2000 nM
2  COc1cc2c3c(c4cc(OC)c(OC)cc4c2cc1OC)CN1CCC[C@H]1C3 [compound 19, 13aS-tylophorine]           > 1000 nM
3  COc1ccc2c3c(c4cc(OC)c(OC)cc4c2c1)C[N@+]1([O-])CCC[C@H]1C3 [compound 12, 10R-deoxytylophorinine N-oxide]           > 1000 nM

====

Let's look at some molecules and their measured log10 IC50.
Target: HIF-1 (Homo sapiens)
Sequence (Q16665 whole entry): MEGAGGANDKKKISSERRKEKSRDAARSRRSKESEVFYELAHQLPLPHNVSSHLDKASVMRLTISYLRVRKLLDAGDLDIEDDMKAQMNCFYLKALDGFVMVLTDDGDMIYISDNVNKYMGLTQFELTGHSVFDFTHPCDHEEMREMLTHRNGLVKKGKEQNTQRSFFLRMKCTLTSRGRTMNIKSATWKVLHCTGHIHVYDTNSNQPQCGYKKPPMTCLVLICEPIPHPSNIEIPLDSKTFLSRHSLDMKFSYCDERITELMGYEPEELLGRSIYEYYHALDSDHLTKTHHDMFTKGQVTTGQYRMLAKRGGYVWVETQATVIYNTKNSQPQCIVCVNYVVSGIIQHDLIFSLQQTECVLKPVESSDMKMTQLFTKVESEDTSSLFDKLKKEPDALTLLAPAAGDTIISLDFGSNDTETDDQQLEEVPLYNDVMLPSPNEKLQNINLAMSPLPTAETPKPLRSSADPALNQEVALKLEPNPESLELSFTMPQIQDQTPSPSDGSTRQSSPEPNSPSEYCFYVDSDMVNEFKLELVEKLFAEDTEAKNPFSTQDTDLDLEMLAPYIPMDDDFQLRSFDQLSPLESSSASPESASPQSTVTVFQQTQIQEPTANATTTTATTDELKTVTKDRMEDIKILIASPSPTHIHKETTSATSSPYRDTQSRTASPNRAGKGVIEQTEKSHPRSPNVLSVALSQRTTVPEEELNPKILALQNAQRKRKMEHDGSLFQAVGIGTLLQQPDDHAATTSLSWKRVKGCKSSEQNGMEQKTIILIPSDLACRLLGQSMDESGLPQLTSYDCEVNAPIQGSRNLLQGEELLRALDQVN
Experiment: HIF-1-mediated reporter gene assay in T47D cells (HRE-luciferase, hypoxia-induced HIF-1 activation)
Assay type: cell-based
Set-up: endogenous in cells; host or cells: T47D cells (American Type Culture Collection)
Conditions: T47D human breast tumor cells, HIF-1 activation induced by hypoxia (2% O2, 20 h); means±SD; read-out: HIF-1 activation inhibitory activity IC50 (nM) T47D
recorded metric: log10 IC50 (log10 of the value in nM)

> print(dat)
                                   molecule   experimental.target  experimental.value
1  COc1ccc2c3c(c4cc(OC)c(OC)cc4c2c1)CN1O[C@@H](CC(C)=O)CC[C@H]1[C@H]3O (single isomer, unassigned)  HIF-1 (Homo sapiens)                3.42
2  COc1cc2c3c(c4cc(OC)c(OC)cc4c2cc1OC)[C@H](O)[C@@H]1CCC[N@@+]1([O-])C3  HIF-1 (Homo sapiens)                2.64
3  COc1cc2c3c(c4ccc(O)cc4c2cc1O)[C@@H](O)[C@@H]1CCC[N@@+]1([O-])C3  HIF-1 (Homo sapiens)                1.70
4  COc1cc2c3c(c4ccc(O)cc4c2cc1OC)[C@H](O)[C@@H]1CCCN1C3  HIF-1 (Homo sapiens)                0.78
5  COc1cc2c3c(c4cc(OC)c(OC)cc4c2cc1OC)C[N@+]1([O-])CCC[C@H]1C3 [compound 11, 10R, 13aS-tylophorine N-oxide]  HIF-1 (Homo sapiens)                2.97
6  COc1cc2c3c(c4cc(O)c(OC)cc4c2cc1O)[C@@H](O)[C@H]1CCC[N@+]1([O-])C3  HIF-1 (Homo sapiens)                1.57
